Just for reference, patent US20240141025A1 is where these values come from.

# target or test system: recombinant human TTR F87M/L110M (human, UniProt P02766 21-147)
# assay info: SPR (Biacore), mAb captured on anti-human chip, TTR F87M/L110M as analyte
result type: Kd

# Kd lookup, item Hu14G8 H2L1 (antibody, human IgG1, kappa, V domains shown, also called humanized 14G8 VHv2/VLv1) VH: EVQLVESGGGLVQPGGSLKLSCAASGFTFSSYTMSWVRQTPEKRLELVAEINNSGDTTYYPDTVKGRFTISRDNAKNTLYLQMSSLKSEDTAMYYCARHYYYGGGYGGWFFDVWGQGTLVTVSS VL: DIVMTQSAPSLPVTPGESVSISCRSNKSLLHSNGNTYLYWFLQKPGQSPQLLIYRVSNLASGVPDRFSGSGSGTAFTLKISRVEAEDVGVYYCMQHLEYPLTFGQGTKLEIKR
2.26 nM

# Kd lookup, item Hu14G8 H2L3 (antibody, human IgG1, kappa, V domains shown, also called humanized 14G8 VHv2/VLv3) VH: EVQLVESGGGLVQPGGSLKLSCAASGFTFSSYTMSWVRQTPEKRLELVAEINNSGDTTYYPDTVKGRFTISRDNAKNTLYLQMSSLKSEDTAMYYCARHYYYGGGYGGWFFDVWGQGTLVTVSS VL: DIVMTQSPLSLPVTPGEPASISCRSSKSLLHSNGNTYLYWFLQKPGQSPQLLIYRVSNLASGVPSRFSGSGSGTDFTLKISRVEAEDVGVYYCMQHLEYPLTFGQGTKLEIKR
1.24 nM

# Kd lookup, item Hu14G8 H3L1 (antibody, human IgG1, kappa, V domains shown, also called humanized 14G8 VHv3/VLv1) VH: EVQLVESGGGLVQPGGSLKLSCAASGFTFSSYTMSWVRQTPEKRLELVAEINNSGDTTYYPDTVKGRFTISRDNAKNTLYLQMNSLRAEDTAVYYCARHYYYGGGYGGWFFDVWGQGTLVTVSS VL: DIVMTQSAPSLPVTPGESVSISCRSNKSLLHSNGNTYLYWFLQKPGQSPQLLIYRVSNLASGVPDRFSGSGSGTAFTLKISRVEAEDVGVYYCMQHLEYPLTFGQGTKLEIKR
1.76 nM
